Task for the reader: assign each of the following compounds its reported CC50.
# protocol_text: Cytotoxicity against HEK293T cells assessed as reduction in cell viability by MTT assay
# Assay type: toxicity, cell-based, HEK-293T
# condition_set: human

// solved cases for CC50 follow
C#C[C@]1(CO)O[C@@H](n2cnc3c(N)nc(F)nc32)[C@@H](F)[C@@H]1O :: > 100 µM
COc1nc(N)c2ncn([C@@H]3O[C@@](CO)(N=[N+]=[N-])[C@@H](O)[C@@H]3F)c2n1 :: > 100 µM
Nc1ccn([C@@H]2CS[C@H](CO)O2)c(=O)n1 [LAMIVUDINE] :: > 100 µM
C#C[C@]1(CO)O[C@@H](n2cnc3c(N)ncnc32)[C@@H](F)[C@@H]1O :: 56.5 µM

Now look at this entry.
Q) Which value of CC50 has been reported for [N-]=[N+]=N[C@]1(CO)O[C@@H](n2cnc3c(N)nc(F)nc32)[C@@H](F)[C@@H]1O in the records?
A) > 100 µM

* * *

# protocol_text: AUC (0 to t) in female Sprague-Dawley rat at 100 mg/kg, IG measured at 24 hrs LC-MS/MS analysis
# Assay type: ADME, organism-based
# Design: time 24 hrs, dose 100 mg/kg, route ig
# condition_set: in vivo, po
experimental_readout: AUC(0-t) at 24 h (ng·h/mL)
Answers are plain numbers, in ng·h/mL.

Q) Look at this compound and give its reported AUC(0-t) at 24 h. C#C[C@]1(CO)O[C@@H](n2cnc3c(N)nc(F)nc32)[C@@H](F)[C@@H]1O
A) 82500

* * *

# protocol_text: Half life in Sprague-Dawley rat at 2.5 mg/kg, IG measured upto 24 hrs by LC-MS/MS analysis
# Format: ADME, organism-based
# condition_set: in vivo, po
experimental_readout: half-life (min)
Give bare numbers, in min.

Q) Quick check: half-life of C#C[C@]1(CO)O[C@@H](n2cnc3c(N)nc(F)nc32)[C@@H](F)[C@@H]1O ?
A) 120

* * *

# protocol_text: AUC (0 to t) in female Sprague-Dawley rat at 10 mg/kg, IG measured at 24 hrs LC-MS/MS analysis
# Type: ADME, organism-based
# Set-up: time 24 hrs, dose 10 mg/kg, route ig
# condition_set: in vivo, po
experimental_readout: AUC(0-t) at 24 h (ng·h/mL)
Answers are plain numbers, in ng·h/mL.

Q) What measured AUC(0-t) at 24 h goes with C#C[C@]1(CO)O[C@@H](n2cnc3c(N)nc(F)nc32)[C@@H](F)[C@@H]1O ?
A) 6800

* * *

# Tested on: Human immunodeficiency virus 1
# protocol_text: Antiviral activity against HIV1 KIZ001 infected in human PBMC assessed as inhibition of viral replication by measuring reduction in p24 antigen level incubated for 3 to 7 days by ELISA analysis
# Type: functional, organism-based
# condition_set: Human immunodeficiency virus 1, KIZ001, PBMC
experimental_readout: EC50

Nc1ccn([C@@H]2CS[C@H](CO)O2)c(=O)n1 :: 73 nM

Query compound follows.
Q) If you can, please state the reported EC50 value of C#C[C@]1(CO)O[C@@H](n2cnc3c(N)nc(F)nc32)[C@@H](F)[C@@H]1O .
A) 1.87 nM

* * *

# protocol_text: AUC (0 to t) in male Sprague-Dawley rat at 30 mg/kg, IG measured at 0.5 hrs LC-MS/MS analysis
# Type: ADME, organism-based
# Parameters: dose 30 mg/kg, time 0.5 hrs, route ig
# condition_set: in vivo, po
experimental_readout: AUC(0-t) at 0.5 h (ng·h/mL)
One number for each entry, in ng·h/mL.

Q) Request the reported AUC(0-t) at 0.5 h associated with C#C[C@]1(CO)O[C@@H](n2cnc3c(N)nc(F)nc32)[C@@H](F)[C@@H]1O
A) 28200

* * *

# protocol_text: Cmax in Sprague-Dawley rat at 5 mg/kg, IG measured upto 24 hrs by LC-MS/MS analysis
# Type: ADME, organism-based
# Parameters: time < 24 hrs, dose 5 mg/kg, route ig
# condition_set: in vivo, po
experimental_readout: Cmax (ng/mL)
One number for each entry, in ng/mL.

Q) Please report the recorded Cmax for C#C[C@]1(CO)O[C@@H](n2cnc3c(N)nc(F)nc32)[C@@H](F)[C@@H]1O .
A) 1230

* * *

# Tested on: Human immunodeficiency virus 1
# protocol_text: Antiviral activity against HIV1 NL4-3 infected in human C8166 cells assessed as inhibition of viral replication by measuring reduction in p24 antigen level incubated for 3 to 7 days by ELISA analysis
# Type: functional, organism-based
# condition_set: Human immunodeficiency virus 1, NL4-3, C8166
experimental_readout: EC50 (nM)
One number for each entry, in nM.

Q) Query (molecule): C#C[C@]1(CO)O[C@@H](n2cnc3c(N)nc(F)nc32)[C@@H](F)[C@@H]1O ; field requested: EC50
A) 1.18

* * *

# System: Human immunodeficiency virus 1
# protocol_text: Antiviral activity against HIV1 IIIB infected in human MT4 cells assessed as inhibition of viral replication incubated for 3 to 7 days by MTT analysis
# Format: functional, organism-based
# condition_set: Human immunodeficiency virus 1, IIIB
experimental_readout: pEC50
Answers are plain numbers, as −log10 of the molar value.

Nc1ccn([C@@H]2CS[C@H](CO)O2)c(=O)n1 :: 6.78

Then there is this compound:
Q) Value lookup for pEC50; key = C#C[C@]1(CO)O[C@@H](n2cnc3c(N)nc(F)nc32)[C@@H](F)[C@@H]1O
A) 8.91

* * *

# protocol_text: AUC (0 to t) in male Sprague-Dawley rat at 10 mg/kg, IG measured at 0.5 hrs LC-MS/MS analysis
# Type: ADME, organism-based
# Set-up: dose 10 mg/kg, time 0.5 hrs, route ig
# condition_set: in vivo, po
experimental_readout: AUC(0-t) at 0.5 h (ng·h/mL)
Give bare numbers, in ng·h/mL.

Q) AUC(0-t) at 0.5 h lookup needed for C#C[C@]1(CO)O[C@@H](n2cnc3c(N)nc(F)nc32)[C@@H](F)[C@@H]1O , thanks.
A) 6860

* * *

# protocol_text: AUC (0 to t) in Sprague-Dawley rat at 10 mg/kg, IG measured upto 24 hrs by LC-MS/MS analysis
# Assay type: ADME, organism-based
# Set-up: dose 10 mg/kg, time < 24 hrs, route ig
# condition_set: in vivo, po
experimental_readout: AUC(0-t) at 24 h (ng·h/mL)
One number for each entry, in ng·h/mL.

Q) AUC(0-t) at 24 h for C#C[C@]1(CO)O[C@@H](n2cnc3c(N)nc(F)nc32)[C@@H](F)[C@@H]1O ?
A) 8660

* * *

# protocol_text: Half life in Sprague-Dawley rat at 5 mg/kg, IG measured upto 24 hrs by LC-MS/MS analysis
# Format: ADME, organism-based
# condition_set: in vivo, po
experimental_readout: half-life (h)
Numbers only, in h.

Q) What does the record list as half-life for C#C[C@]1(CO)O[C@@H](n2cnc3c(N)nc(F)nc32)[C@@H](F)[C@@H]1O ?
A) 3.2

* * *

# protocol_text: AUC (0 to t) in male Sprague-Dawley rat at 10 mg/kg, IG measured at 24 hrs LC-MS/MS analysis
# Format: ADME, organism-based
# Set-up: dose 10 mg/kg, time 24 hrs, route ig
# condition_set: in vivo, po
experimental_readout: AUC(0-t) at 24 h (ng·h/mL)
One number for each entry, in ng·h/mL.

Q) Name the recorded AUC(0-t) at 24 h for C#C[C@]1(CO)O[C@@H](n2cnc3c(N)nc(F)nc32)[C@@H](F)[C@@H]1O .
A) 8150

* * *

# protocol_text: AUC (0 to t) in female Sprague-Dawley rat at 10 mg/kg, IG measured at 0.5 hrs LC-MS/MS analysis
# Type: ADME, organism-based
# Parameters: time 0.5 hrs, dose 10 mg/kg, route ig
# condition_set: in vivo, po
experimental_readout: AUC(0-t) at 0.5 h (ng·h/mL)
Answers are plain numbers, in ng·h/mL.

Q) // AUC(0-t) at 0.5 h lookup, key: C#C[C@]1(CO)O[C@@H](n2cnc3c(N)nc(F)nc32)[C@@H](F)[C@@H]1O
A) 7020

* * *

# protocol_text: AUC (0 to t) in female Sprague-Dawley rat at 30 mg/kg, IG measured at 0.5 hrs LC-MS/MS analysis
# Format: ADME, organism-based
# Parameters: time 0.5 hrs, dose 30 mg/kg, route ig
# condition_set: in vivo, po
experimental_readout: AUC(0-t) at 0.5 h (ng·h/mL)
Give bare numbers, in ng·h/mL.

Q) Any idea what its AUC(0-t) at 0.5 h is? The compound is C#C[C@]1(CO)O[C@@H](n2cnc3c(N)nc(F)nc32)[C@@H](F)[C@@H]1O
A) 22800
